FYI, the data here is from paper PMC5540273.

- Test system: SNRK
- RUN_PARAMETERS: concentration: 1 μM, replicates: in singlicate; n = 1;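 further: KINOMEscan kinase panel screen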
READOUT_KIND: %Inh
Number first, unit second: that is the form wanted.

1) Cc1cn2c(=O)cc(N3CCOCC3)nc2n1Cc1cccc(Cl)c1Cl ... 1%
2) Fc1ccc(-c2nn3c(OCC(F)(F)F)cccc3c2-c2ccncc2)cc1 ... 0%

Next up:
Problem: What value of measured %Inh is listed for Cc1nnc(-c2ccc3ncc(-c4ccc(S(C)=O)cc4)n3c2)o1 (stereo not drawn) ?
Solution: 2%

###

- Test system: CAMK2D
- RUN_PARAMETERS: concentration: 1 μM, replicates: in singlicate; n = 1
Kindly state %Inh for each of the entries shown.
Give bare numbers, in %.

Would you please look over these solved cases?
1) COCCNC(=O)c1ccc(-c2cc(C(=O)NC3CC3)cc(F)c2C)cc1 [GW868318] ... 8
2) Cc1c(Cn2c(C)nn3c(=O)cc(N4CCOC(C)C4)nc23)cccc1C(F)(F)F (centres unmarked) [GSK2344444] ... 0
3) Cc1nnc(-c2ccc3ncc(-c4ccc(S(C)=O)cc4)n3c2)o1 (centres unmarked) ... 25
4) Nc1nccc(-c2c(-c3ccc(F)cc3)ncn2C2CCN(CC(F)(F)F)CC2)n1 [SB-236560] ... 0

For each of the compounds below, note its %Inh.
1. O=C(c1ccc(-c2cc(-c3c[nH]nc3-c3ccccn3)ccn2)cc1)N1CCOCC1 [GW812171]
2. COC(=O)Nc1nc2cc(Oc3ccc(NC(=O)Nc4cc(F)ccc4F)cc3)ccc2[nH]1.Cl [GW701424]
3. COc1ccc(CNC(=O)NC2CCN(c3ccnc(Nc4ccc(OC)cc4)n3)C2)cc1 (centres unmarked) [GSK1379727]
4. COc1cc2c(cc1OCCN1CCN(C)CC1)ncc1c3ccc(C#N)cc3[nH]c21
5. CN(C1=C(c2ccccc2)C(=O)NC1=O)c1ccccc1 [SB-334860]
6. O=C(NCCNc1ccnc(Nc2ccc(F)cc2)n1)Nc1ccccc1F [GSK1379880]
7. CC(C)Oc1ccc2c(-c3ccnc(Nc4ccc(N5CCN(C)CC5)cc4)n3)cnn2n1 [GW696155]

Solution:
1. 0
2. 20
3. 0
4. 92.6
5. 1
6. 0
7. 54

###

- Tested on: TRPM6
- RUN_PARAMETERS: concentration: 1 μM, replicates: in singlicate; n = 1
READOUT_KIND: %Inh (%)
Answers are plain numbers, in %.

Would you please look over these solved cases?
1) CSc1ccc(-c2cc3ncnc(SCC(=O)O)c3s2)cc1 ... 0
2) Cc1nnc(-c2ccc(C)c(-c3ccc(C(=O)Nc4ccc(NS(C)(=O)=O)cc4)cc3)c2)o1 ... 7
3) Cc1ccc(C(=O)NCC(N)=O)cc1-n1c(C)cc(OCc2ccc(F)cc2F)c(Br)c1=O ... 0
4) O=C(NOCC1CC1)c1ccc(F)c(F)c1Nc1ccc(I)cc1Cl ... 0
5) CN(C1=C(c2ccccc2)C(=O)NC1=O)c1ccccc1 ... 31

For each of the compounds below, note its %Inh.
1. CCn1cnc2c(N)ncnc21
2. c1ccc(-c2cc(-c3c[nH]nc3-c3ccccn3)ccn2)cc1
3. CN(C(=O)c1ccc(-c2cc(-c3c[nH]nc3-c3ccccn3)ccn2)cc1)C1CCOCC1
4. Cc1cccc(-c2nc(Nc3ccc4ncsc4c3)c3ccccc3n2)n1

Solution:
81
11
0
0

For each of the compounds below, note its %Inh.
1. COc1ccc(Nc2ncc(C#N)c(Nc3ccccc3C(N)=O)n2)cc1N1CCN(C)CC1.Cl
2. COC(=O)Nc1nc2cc(Oc3ccc(NC(=O)Nc4cc(F)ccc4F)cc3)ccc2[nH]1.Cl
3. N#Cc1ccc(-c2cc(-c3c[nH]nc3-c3ccccn3)ccn2)cc1
4. CN1c2ccc(NCc3ccc(F)cc3)cc2-c2c(cnn2C)S1(=O)=O

Solution:
46
0
0
0

###

Kindly state %Inh for each of the entries shown.
- Tested on: RPS6KA5(Kin.Dom.2-C-terminal)
- RUN_PARAMETERS: concentration: 1 μM, replicates: in singlicate; n = 1
Numbers only, in %.

For each of the compounds below, note its %Inh.
1. Cc1nnc(-c2ccc3ncc(-c4ccc(S(C)=O)cc4)n3c2)o1 (stereo not drawn)
2. CCc1nc(-c2cccc(C)c2)c(-c2ccnc(NCc3ccccc3)c2)s1
3. CCc1ccnc(/C=C/c2n[nH]c3cc(Sc4ccccc4C(=O)NC)ccc23)c1
4. Cc1ccc(NC(=O)c2ccnc(N3CCN(C)CC3)c2)cc1-c1ccc(C(=O)NCC2CC2)cc1
5. CCn1cnc2c(N)ncnc21
6. Cc1cccc(-c2nc(-c3ccc(S(C)(=O)=O)cc3)sc2-c2ccncc2)c1

Solution:
2
4
0
0
0
9

For each of the compounds below, note its %Inh.
1. O=C(Nc1cccc(-c2nn3ncccc3c2-c2ccnc(Nc3cccc(C(F)(F)F)c3)n2)c1)c1c(F)cccc1F
2. Cl.Nc1ncnc2occ(-c3ccc(NC(=O)Nc4cc(C(F)(F)F)ccc4F)cc3)c12
3. COc1cc2ncn(-c3cc(OCc4sccc4Cl)c(C(N)=O)s3)c2cc1OC

Solution:
[5, 16, 0]

###

- System: TBK1
- RUN_PARAMETERS: concentration: 1 μM, replicates: in singlicate; n = 1
READOUT_KIND: %Inh
Number first, unit second: that is the form wanted.

Would you please look over these solved cases?
1. Cc1ccc(NC(=O)c2ccnc(N3CCN(C)CC3)c2)cc1-c1ccc(C(=O)NCC2CC2)cc1 [GW775604] ... 13%
2. CN1c2ccc(CNc3ccc(F)cc3)cc2-c2c(cnn2C)S1(=O)=O ... 0%
3. NS(=O)(=O)c1cccc(-c2ccc3nccc(-c4cccc(S(N)(=O)=O)c4)c3c2)c1 [GW867253] ... 15%
4. NCC(NC(=O)c1cc(-c2cn[nH]c2)c(-c2ccnc3[nH]ccc23)s1)c1ccccc1.O=C(O)C(F)(F)F.O=C(O)C(F)(F)F (centres unmarked) [GSK1325775] ... 20%
5. O=C(NCCNc1ccnc(Nc2ccc(F)cc2)n1)Nc1ccccc1F [GSK1379880] ... 6%
6. COc1cc2ncn(-c3cc(OCc4sccc4Cl)c(C(N)=O)s3)c2cc1OC [GSK448459] ... 15%
7. CNc1ncnc2[nH]ncc12 [SKF-18355] ... 30%
8. CC(C)(C)n1cnc2c(N)ncnc21 [SKF-97359] ... 19%

For each of the compounds below, note its %Inh.
1. COC(=O)Nc1nc2cc(Oc3ccc(NC(=O)Nc4cc(F)ccc4F)cc3)ccc2[nH]1.Cl [GW701424]
2. COc1ccc(S(=O)(=O)NC2CCN(c3cc(C)nc(Nc4cccc(C#N)c4)n3)CC2)cc1.O=C(O)C(F)(F)F [GSK1653539]
3. Cl.Oc1cccc(Nc2ccnc3cc(-c4ccncc4)ccc23)c1 [GW494601]

Solution:
9%
11%
9%

###

Kindly state %Inh for each of the entries shown.
- Tested on: PIK3CD
- RUN_PARAMETERS: concentration: 1 μM, replicates: in singlicate; n = 1
Number first, unit second: that is the form wanted.

Would you please look over these solved cases?
1) [2H]C([2H])(c1cccc(C(F)(F)F)c1C)n1ccn2c(=O)nc(N3CCOCC3)cc12 [GSK2336394] ... 38%
2) CCc1ccnc(/C=C/c2n[nH]c3cc(Sc4ccccc4C(=O)NC)ccc23)c1 ... 10%

Next up:
Problem: Missing value: %Inh, PIK3CD, entry O=c1cc(N2CCOCC2)nc2n(Cc3cccc4ccccc34)ccn12 [GSK2333389] . Fill in?
Solution: 89%

###

Kindly state %Inh for each of the entries shown.
- Test system: RSK2(Kin.Dom.1-N-terminal)
- Construct: gene RPS6KA3
- RUN_PARAMETERS: concentration: 1 μM, replicates: in singlicate; n = 1
Answers are plain numbers, in %.

Would you please look over these solved cases?
1) Cc1cn2c(=O)cc(N3CCOCC3)nc2n1Cc1cccc(Cl)c1Cl [GSK2334006] ... 12
2) COC(=O)Nc1nc2cc(Oc3ccc(NC(=O)Nc4cc(F)ccc4F)cc3)ccc2[nH]1.Cl [GW701424] ... 5

For each of the compounds below, note its %Inh.
1. O=C(NCCNc1ccnc(Nc2ccc(F)cc2)n1)c1cc2ccccc2s1 [GSK1379874]
2. NS(=O)(=O)c1cccc(-c2ccc3nccc(-c4cccc(S(N)(=O)=O)c4)c3c2)c1 [GW867253]

Solution:
1. 0
2. 31

###

- Test system: AMPK-alpha1
- Construct: gene PRKAA1
- RUN_PARAMETERS: concentration: 1 μM, replicates: in singlicate; n = 1
READOUT_KIND: %Inh (%)
Numbers only, in %.

Would you please look over these solved cases?
1) Cc1cccc(-c2nc(-c3ccc(S(C)(=O)=O)cc3)sc2-c2ccncc2)c1 ... 1
2) CCn1cnc2c(N)ncnc21 ... 29
3) CCCCCc1nc2c(N)ncnc2n1CCCCC ... 3
4) CN(C(=O)c1ccc(-c2cc(-c3c[nH]nc3-c3ccccn3)ccn2)cc1)C1CCOCC1 ... 0
5) c1ccc(-c2cc(-c3c[nH]nc3-c3ccccn3)ccn2)cc1 ... 0

For each of the compounds below, note its %Inh.
1. N#Cc1c(N2CCOCC2)sc(-c2ccn[nH]2)c1-c1ccc(Cl)cc1
2. COc1cc(Nc2nccc(N3CCC(NC(=O)c4cccc(NC(C)=O)c4)C3)n2)cc(OC)c1OC (centres unmarked)
3. Cc1c(Cn2c(C)nn3c(=O)cc(N4CCOC(C)C4)nc23)cccc1C(F)(F)F (centres unmarked)
4. CC(C)Oc1ccc2c(-c3ccnc(Nc4ccc(N5CCN(C)CC5)cc4)n3)cnn2n1
5. Cc1c2ccc(N(C)c3ccnc(Nc4cccc(S(N)(=O)=O)c4)n3)cc2nn1Cc1ccccc1.Cl.Cl
6. CNc1ncnc2[nH]ncc12

Solution:
[9, 8, 0, 41, 17, 0]
